Biological target: ovine COX-2 (Ovis aries, UniProt P79208)
Construct: purchased Cayman Chemical, Ann Arbor, MI, USA
Sequence (P79208 17-603): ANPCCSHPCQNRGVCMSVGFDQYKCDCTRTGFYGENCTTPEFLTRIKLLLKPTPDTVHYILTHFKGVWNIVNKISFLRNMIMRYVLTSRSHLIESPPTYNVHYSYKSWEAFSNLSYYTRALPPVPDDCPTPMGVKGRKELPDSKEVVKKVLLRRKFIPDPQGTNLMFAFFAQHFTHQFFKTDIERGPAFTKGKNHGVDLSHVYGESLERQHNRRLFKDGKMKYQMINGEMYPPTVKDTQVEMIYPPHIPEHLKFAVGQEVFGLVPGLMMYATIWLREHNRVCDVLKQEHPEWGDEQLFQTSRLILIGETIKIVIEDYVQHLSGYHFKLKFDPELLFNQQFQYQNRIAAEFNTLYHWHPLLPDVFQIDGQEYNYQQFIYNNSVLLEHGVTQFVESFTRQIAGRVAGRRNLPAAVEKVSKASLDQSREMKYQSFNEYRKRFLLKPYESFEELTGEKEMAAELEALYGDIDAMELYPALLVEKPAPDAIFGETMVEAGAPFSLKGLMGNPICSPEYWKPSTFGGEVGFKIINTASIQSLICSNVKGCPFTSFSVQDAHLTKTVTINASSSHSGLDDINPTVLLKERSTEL
Experiment: In vitro ovine COX-2 enzyme inhibition (chemiluminescent enzyme assay kit, Cayman)
Format: biochemical
Conditions: ovine COX-1/COX-2 assay kit; means of two determinations, deviation < 10% of the mean
Description: The ability of the test compounds listed in Table 1 to inhibit ovine COX-1 and COX-2 (IC50 value, μM) was determined using the chemiluminescent enzyme assay kit (Cayman Chemical, Ann Arbor, MI, USA) according to our previously reported method.
Entries and their IC50
All answers are understood in µM, so give the number only.

Sample records with IC50:
• CS(=O)(=O)c1ccc(-c2oc3ccccc3c(=O)c2OCc2ccccc2)cc1 [Compound 5d] = 0.07
• CCOc1c(-c2ccc(S(C)(=O)=O)cc2)oc2ccccc2c1=O [Compound 5b] = 0.09
• COc1c(-c2ccc(S(C)(=O)=O)cc2)oc2ccccc2c1=O [Compound 5a] = 0.1
• CS(=O)(=O)c1ccc(-c2cc(=O)c3ccccc3o2)cc1 [Compound 3] = 0.11
• C=CCOc1c(-c2ccc(S(C)(=O)=O)cc2)oc2ccccc2c1=O [Compound 5c] = 0.08
• CC(=O)Oc1c(-c2ccc(S(C)(=O)=O)cc2)oc2ccccc2c1=O [Compound 6] = 0.08

Now for a further compound.
Which IC50 is listed for CS(=O)(=O)c1ccc(-c2oc3ccccc3c(=O)c2O)cc1 [Compound 4] ?
0.13
